- TARGET_OF_ASSAY: T1, Fc Receptor-like 5 (FcRL5), full length, overexpressed on 3T3 or Raji cells (human, UniProt Q96RD9 16-977)
- T1 construct: also called 3T3-FcRL5
- T1 sequence: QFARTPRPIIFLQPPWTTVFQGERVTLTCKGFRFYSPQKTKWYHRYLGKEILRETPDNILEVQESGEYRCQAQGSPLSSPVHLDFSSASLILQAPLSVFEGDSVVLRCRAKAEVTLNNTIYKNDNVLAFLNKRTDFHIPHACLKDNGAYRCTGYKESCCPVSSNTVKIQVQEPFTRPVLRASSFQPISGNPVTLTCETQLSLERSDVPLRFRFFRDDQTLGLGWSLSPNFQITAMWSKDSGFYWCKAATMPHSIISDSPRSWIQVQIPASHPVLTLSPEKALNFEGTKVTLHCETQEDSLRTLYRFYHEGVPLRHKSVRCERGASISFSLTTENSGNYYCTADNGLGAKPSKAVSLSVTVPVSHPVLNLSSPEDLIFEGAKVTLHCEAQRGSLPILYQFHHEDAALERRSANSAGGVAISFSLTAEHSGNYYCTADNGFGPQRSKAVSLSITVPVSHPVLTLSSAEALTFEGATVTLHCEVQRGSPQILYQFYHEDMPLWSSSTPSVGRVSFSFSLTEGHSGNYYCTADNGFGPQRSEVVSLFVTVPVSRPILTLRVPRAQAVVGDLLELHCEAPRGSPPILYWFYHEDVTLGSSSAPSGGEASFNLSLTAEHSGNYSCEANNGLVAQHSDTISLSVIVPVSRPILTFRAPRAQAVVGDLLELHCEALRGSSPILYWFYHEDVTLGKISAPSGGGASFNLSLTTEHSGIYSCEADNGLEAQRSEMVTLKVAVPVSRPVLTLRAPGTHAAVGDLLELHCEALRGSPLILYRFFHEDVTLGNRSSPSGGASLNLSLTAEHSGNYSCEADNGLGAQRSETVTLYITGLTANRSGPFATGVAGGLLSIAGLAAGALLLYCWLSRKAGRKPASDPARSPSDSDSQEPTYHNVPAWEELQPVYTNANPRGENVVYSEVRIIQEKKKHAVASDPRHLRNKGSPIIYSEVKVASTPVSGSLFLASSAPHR
- EXPERIMENT_SUMMARY: phage clone screening on cells

BINDER	binding result
ET200-081 (scFv, screened as phage clone; entry is VL-linker-VH-His tag-HA tag) scFv: QSALTQPASVSGSPGQSITISCTGTSSDIGGYNYVSWYQQHPGKAPKLMIYDVSNRPSGVSNRFSGSKSGNTASLTISGLQAEDEADYYCISYTRTWNPYVFGSGTKVTVLGSRGGGGSGGGGSGGGGSLEMAEVQLVQSGGGVVQPGGSLRLSCAASGFTFDDYAMHWVRQAPGKGLEWVSLISGDGGSTYYADSVKGRFTISRDNSKNSLYLQMNSLRTEDTALYYCAKDRAAAGYYYYGMDVWGQGTTVTVSSTSGQAGQHHHHHHGAYPYDVPDYAS	binds
ET200-100 (scFv, screened as phage clone; entry is VL-linker-VH-His tag-HA tag) scFv: NFMLTQPHSVSESPGKTVTISCTRSSGSIASNFVQWYQQRPGSAPTPMIYEDNNRPPGVPDRFSASVDSSSNSASLTISGLKTEDEADYYCQSYDTSNVVFGGGTKLTVLGSRGGGGSGGGGSGGGGSLEMAEVQLVESGGGLVQPGGSLRLSCAASGFTFSSYEMNWVRQAPGKGLEWVSYISSSGSTIYYADSVKGRFTISRDNAKNSLYLQMNSLRAEDTAVYYCARWDYGMDVWGQGTTVTVSSTSGQAGQHHHHHHGAYPYDVPDYAS	binds

// data source = patent US20210388081A1
